- measurementNotes: Solubility of compound in water
- Format: physicochemical
- conditionDescription: water; read-out: solubility
attributeMeasured: solubility
Your reply should be a number followed by the unit it is expressed in.

// solubility lookup, key: CN(C)CCNc1cccc2c1C(=O)c1nc3ccccc3c(=O)n1-2
996 µM

###

- measuredTarget: DNA topoisomerase 2-alpha (Homo sapiens, UniProt P11388)
- Sequence (P11388 whole entry): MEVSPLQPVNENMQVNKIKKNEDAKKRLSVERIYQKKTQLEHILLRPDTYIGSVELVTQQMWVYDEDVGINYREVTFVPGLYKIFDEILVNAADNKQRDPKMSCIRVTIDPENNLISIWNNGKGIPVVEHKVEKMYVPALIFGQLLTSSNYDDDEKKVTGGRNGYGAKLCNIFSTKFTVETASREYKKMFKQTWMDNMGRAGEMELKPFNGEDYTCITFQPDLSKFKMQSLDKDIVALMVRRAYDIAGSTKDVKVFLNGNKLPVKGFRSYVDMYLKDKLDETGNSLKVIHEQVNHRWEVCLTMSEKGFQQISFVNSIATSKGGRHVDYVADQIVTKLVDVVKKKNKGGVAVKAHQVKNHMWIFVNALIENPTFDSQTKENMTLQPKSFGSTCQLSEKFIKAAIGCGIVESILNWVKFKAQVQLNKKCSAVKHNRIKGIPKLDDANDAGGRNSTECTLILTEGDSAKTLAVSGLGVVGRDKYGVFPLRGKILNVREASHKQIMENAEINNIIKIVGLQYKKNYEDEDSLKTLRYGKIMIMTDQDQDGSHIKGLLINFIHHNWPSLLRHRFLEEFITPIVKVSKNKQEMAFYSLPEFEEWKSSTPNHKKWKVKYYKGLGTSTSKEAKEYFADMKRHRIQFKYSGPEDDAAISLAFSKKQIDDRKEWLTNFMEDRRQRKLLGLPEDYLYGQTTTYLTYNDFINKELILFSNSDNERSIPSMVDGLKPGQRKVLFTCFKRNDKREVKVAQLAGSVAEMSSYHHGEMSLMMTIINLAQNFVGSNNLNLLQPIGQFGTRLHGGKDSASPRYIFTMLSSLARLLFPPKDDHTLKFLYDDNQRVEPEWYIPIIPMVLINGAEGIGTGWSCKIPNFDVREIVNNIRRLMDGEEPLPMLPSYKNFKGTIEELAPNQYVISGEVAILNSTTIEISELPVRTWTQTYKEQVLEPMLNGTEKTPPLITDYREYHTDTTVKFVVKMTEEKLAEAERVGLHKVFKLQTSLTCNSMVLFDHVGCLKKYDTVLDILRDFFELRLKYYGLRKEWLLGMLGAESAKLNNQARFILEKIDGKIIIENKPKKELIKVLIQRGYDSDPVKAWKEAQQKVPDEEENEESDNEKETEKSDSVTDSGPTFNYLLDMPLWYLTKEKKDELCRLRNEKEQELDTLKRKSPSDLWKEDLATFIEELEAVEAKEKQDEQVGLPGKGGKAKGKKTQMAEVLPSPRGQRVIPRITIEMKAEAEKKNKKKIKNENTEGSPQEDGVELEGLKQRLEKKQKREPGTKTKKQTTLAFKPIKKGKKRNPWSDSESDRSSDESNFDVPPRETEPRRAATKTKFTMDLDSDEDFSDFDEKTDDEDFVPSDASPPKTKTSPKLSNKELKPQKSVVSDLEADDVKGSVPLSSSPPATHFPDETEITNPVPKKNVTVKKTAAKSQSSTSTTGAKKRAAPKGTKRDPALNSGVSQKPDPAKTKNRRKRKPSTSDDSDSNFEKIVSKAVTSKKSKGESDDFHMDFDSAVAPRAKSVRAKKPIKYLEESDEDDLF
- measurementNotes: Inhibition of human DNA topoisomerase 2alpha assessed as suppression of decatenation using catenated kinetoplast DNA as substrate measured after 30 mins by SYBR safe DNA staining based staining-based agarose gel electrophoresis method
attributeMeasured: IC50 (µM)
One number for each entry, in µM.

// IC50 lookup, key: CN(C)CCNc1cccc2c1C(=O)c1nc3ccccc3c(=O)n1-2
26.6
